- experimental_target: Sodium channel protein type 9 subunit alpha (Homo sapiens, UniProt Q15858)
- Sequence (Q15858 whole entry): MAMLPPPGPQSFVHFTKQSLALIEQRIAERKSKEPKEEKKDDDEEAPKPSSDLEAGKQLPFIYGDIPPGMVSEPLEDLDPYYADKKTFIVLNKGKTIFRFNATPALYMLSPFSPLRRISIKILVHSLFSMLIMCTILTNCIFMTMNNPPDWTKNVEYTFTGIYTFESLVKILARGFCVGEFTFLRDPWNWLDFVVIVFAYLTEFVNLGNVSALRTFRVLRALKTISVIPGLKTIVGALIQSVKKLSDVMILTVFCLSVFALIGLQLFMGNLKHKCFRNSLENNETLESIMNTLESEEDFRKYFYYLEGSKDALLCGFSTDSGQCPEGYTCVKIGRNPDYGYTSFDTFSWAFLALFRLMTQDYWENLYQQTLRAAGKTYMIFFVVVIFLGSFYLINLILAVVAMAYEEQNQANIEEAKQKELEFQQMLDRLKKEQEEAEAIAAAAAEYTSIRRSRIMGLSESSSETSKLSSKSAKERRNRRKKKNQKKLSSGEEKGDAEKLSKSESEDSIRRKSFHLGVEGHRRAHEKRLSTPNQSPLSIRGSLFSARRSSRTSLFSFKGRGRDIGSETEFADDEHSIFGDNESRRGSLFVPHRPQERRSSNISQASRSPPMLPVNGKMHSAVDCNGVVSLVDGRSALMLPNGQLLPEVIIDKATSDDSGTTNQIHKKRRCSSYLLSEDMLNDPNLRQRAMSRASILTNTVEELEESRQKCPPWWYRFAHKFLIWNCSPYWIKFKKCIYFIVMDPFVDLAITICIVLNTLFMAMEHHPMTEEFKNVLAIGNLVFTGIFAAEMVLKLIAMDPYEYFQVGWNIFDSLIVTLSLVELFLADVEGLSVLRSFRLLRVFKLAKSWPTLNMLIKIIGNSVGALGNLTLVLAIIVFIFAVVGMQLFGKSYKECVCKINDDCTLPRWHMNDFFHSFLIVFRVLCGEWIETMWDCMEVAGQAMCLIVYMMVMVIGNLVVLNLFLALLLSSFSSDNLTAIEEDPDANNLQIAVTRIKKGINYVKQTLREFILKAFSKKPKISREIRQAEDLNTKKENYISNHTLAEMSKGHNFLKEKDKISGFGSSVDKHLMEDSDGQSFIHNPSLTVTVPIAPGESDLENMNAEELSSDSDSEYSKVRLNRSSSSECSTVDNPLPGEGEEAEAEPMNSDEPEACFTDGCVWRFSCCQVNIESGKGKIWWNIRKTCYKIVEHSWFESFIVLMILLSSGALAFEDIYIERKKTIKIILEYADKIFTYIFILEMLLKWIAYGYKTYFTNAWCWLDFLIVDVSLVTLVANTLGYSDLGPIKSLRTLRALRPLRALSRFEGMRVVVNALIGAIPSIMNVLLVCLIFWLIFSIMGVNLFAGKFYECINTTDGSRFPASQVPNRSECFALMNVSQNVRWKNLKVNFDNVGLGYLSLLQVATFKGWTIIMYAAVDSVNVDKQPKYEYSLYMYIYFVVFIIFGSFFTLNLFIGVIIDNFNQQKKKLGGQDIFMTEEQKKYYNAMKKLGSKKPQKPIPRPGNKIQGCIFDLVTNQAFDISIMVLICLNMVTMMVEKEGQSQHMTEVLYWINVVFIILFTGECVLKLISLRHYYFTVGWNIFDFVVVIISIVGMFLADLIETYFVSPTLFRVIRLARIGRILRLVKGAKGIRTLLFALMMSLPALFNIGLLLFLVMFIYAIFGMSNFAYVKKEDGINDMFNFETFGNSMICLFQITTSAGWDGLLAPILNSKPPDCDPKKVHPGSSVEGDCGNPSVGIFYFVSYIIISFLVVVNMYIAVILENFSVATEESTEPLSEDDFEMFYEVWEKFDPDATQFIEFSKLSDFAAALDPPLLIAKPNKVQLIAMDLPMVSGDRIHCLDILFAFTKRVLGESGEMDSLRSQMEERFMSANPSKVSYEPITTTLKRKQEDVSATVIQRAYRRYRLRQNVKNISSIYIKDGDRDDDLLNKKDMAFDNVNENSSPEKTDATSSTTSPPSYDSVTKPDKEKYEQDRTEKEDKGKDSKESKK
- assay_notes: Inhibition of full length human Nav1.7 channel expressed in HEK cells co-expressing human sodium channel subunit beta1 at holding potential -60 mV by automated voltage clamp analysis
- Format: cell-based, HEK293
experimental_endpoint: IC50 (µM)

Use these answered entries as a reference point.
1. Nc1noc2ccc(-c3cc(Cl)ccc3Oc3cc(F)c(S(=O)(=O)NCc4ncccn4)cc3F)cc12    5.2
2. Nc1noc2ccc(-c3cc(Cl)ccc3Oc3cc(F)c(S(=O)(=O)Nc4ncns4)cc3F)cc12    0.0004

[A] O=S(=O)(Nc1ncns1)c1cc(F)c(Oc2ccc(Cl)cc2-c2cccc3nccn23)cc1F
[B] Nc1noc2ccc(CCOc3cc(F)c(S(=O)(=O)Nc4ncns4)cc3F)cc12
Ask: Which of the two items, A and B , has the greater recorded IC50? // return label of chosen record
Reply: B
